target: GOPC, Q9HD26; experiment: holdup assay; design: key: below the threshold = too weak to quantify, mostly under pKd 3.1 to 4; details: plain residues with an end cap or a label only (N-terminal biotin on a linker: ado-ado)
ENDPOINT_LABEL: pKd

{"BINDER": "QKNRKAQEDL [CES3, Q6UWW8]", "OBSERVED_VALUE": "below the threshold"}
{"BINDER": "SGSLKLMTTV [DACT1, Q9NYF0]", "OBSERVED_VALUE": 3.95}
{"BINDER": "QSLNRMEYIV [JAG1, P78504]", "OBSERVED_VALUE": "below the threshold"}
{"BINDER": "LPHGHSTTRV [NLGN4X, Q8N0W4]", "OBSERVED_VALUE": 4.37}
